Measured values drawn from patent US10689413B2 for this set.

Exercise: for every item that follows, state its recorded IC50.
# System: OVCAR-3 tumor cells
# assay.explanation: Tumor cell proliferation in vitro, CTG method, OVCAR-3
# Type: cell-based
# conditions: Homo sapiens, OVCAR-3, 96 hours
Give bare numbers, in nM.

compound	unit.text	IC50
C[C@H](NP(=O)(OC[C@H]1O[C@@H](n2ccc(N)nc2=O)C(F)(F)[C@@H]1O)Oc1ccccc1)C(=O)OCc1ccccc1 (stereo partly drawn)	nM	0.095
C[C@H](N[P@@](=O)(OC[C@H]1O[C@@H](n2ccc(N)nc2=O)C(F)(F)[C@@H]1O)Oc1ccccc1)C(=O)OCc1ccccc1	nM	0.167

IC50 for `C[C@H](N[P@](=O)(OC[C@H]1O[C@@H](n2ccc(N)nc2=O)C(F)(F)[C@@H]1O)Oc1ccccc1)C(=O)OCc1ccccc1` ?
0.013
